Assay explanation: Inhibitory concentration against Murine Lewis lung carcinoma (LLC) cell proliferation
Type: functional, cell-based
Condition parameters: Mus musculus
Metric name: IC50 (nM)
Give the number; nM is assumed, so skip it.

(Q) Quick one: give measured IC50 for COc1cc([C@@H]2c3cc4c(cc3[C@@H](O[C@@H]3O[C@@H]5CO[C@@H](C)O[C@H]5[C@H](O)[C@H]3O)[C@H]3COC(=O)[C@H]23)OCO4)cc(OC)c1O [ETOPOSIDE]
(A) 180

(Q) Quick one: give measured IC50 for `CN(C)CCNC(=O)c1cccc2cc3c(nc12)-c1ccccc1C3`
(A) 190

(Q) Quick one: give measured IC50 for `CN(C)CCNC(=O)c1cccc2cc3sc4ccccc4c3nc12`
(A) 66

(Q) Quick one: give measured IC50 for `CN(C)CCNC(=O)c1cccc2nc3c(nc12)oc1ccccc13`
(A) 1700

(Q) Quick one: give measured IC50 for `CN(C)CCNC(=O)c1cccc2c(C(=O)NCCN(C)C)c3sc4ccccc4c3nc12`
(A) 30

(Q) Quick one: give measured IC50 for `CN(C)CCNC(=O)c1cccc2cc3c(nc12)-c1ccccc1S3(=O)=O`
(A) 430

(Q) Quick one: give measured IC50 for `CN(C)CCNC(=O)c1cccc2cc3c(nc12)-c1ccccc1C3=O`
(A) 91

(Q) Quick one: give measured IC50 for `COc1cccc2c1C(=O)c1c(O)c3c(c(O)c1C2=O)C[C@@](O)(C(=O)CO)C[C@@H]3O[C@H]1C[C@H](N)[C@H](O)[C@H](C)O1`
(A) 22

----------
Assay explanation: Inhibitory concentration against Murine Lewis lung carcinoma (LLC) cell proliferation
Format: functional, cell-based
Condition parameters: Mus musculus
Doc: threshold 200 nM (exclusive). Items with IC50 beneath it return t; others return f.

(Q) Hi there! Is IC50 for `CN(C)CCNC(=O)c1cc(Cl)cc2[nH]c3nc4ccccc4c-3nc12` below 200 nM, do you know?
(A) f

(Q) Hi there! Is IC50 for `CN(C)CCNC(=O)c1cccc2[nH]c3c4ccccc4nc-3nc12` below 200 nM, do you know?
(A) f

(Q) Hi there! Is IC50 for `CN(C)CCNC(=O)c1cc(Cl)cc2[nH]c3c4ccccc4nc-3nc12` below 200 nM, do you know?
(A) f

(Q) Hi there! Is IC50 for `CN(C)CCNC(=O)c1cccc2cc3oc4ccccc4c3nc12` below 200 nM, do you know?
(A) f

(Q) Hi there! Is IC50 for `CC[C@@]1(O)C(=O)OCc2c1cc1n(c2=O)Cc2cc3ccccc3nc2-1` below 200 nM, do you know?
(A) t

(Q) Hi there! Is IC50 for `CN(C)CCNC(=O)c1cccc2nc3sc4ccccc4c3nc12` below 200 nM, do you know?
(A) t

(Q) Hi there! Is IC50 for `COc1cc(NS(C)(=O)=O)ccc1Nc1c2ccccc2nc2ccccc12` below 200 nM, do you know?
(A) t

(Q) Hi there! Is IC50 for `CN(C)CCNC(=O)c1cc(Cl)cc2nc3oc4ccccc4c3nc12` below 200 nM, do you know?
(A) f

(Q) Hi there! Is IC50 for `CN(C)CCNC(=O)c1cccc2nc3c(nc12)-c1ccccc1C3` below 200 nM, do you know?
(A) f

(Q) Hi there! Is IC50 for `CN(C)CCNC(=O)c1cccc2cc3c(nc12)C(=O)c1ccccc1-3` below 200 nM, do you know?
(A) t

(Q) Hi there! Is IC50 for `CN(C)CCNC(=O)c1cccc2nc3c(nc12)-c1ccccc1C3=O` below 200 nM, do you know?
(A) f

(Q) Hi there! Is IC50 for `CN(C)CCNC(=O)c1cc(Cl)cc2nc3c(nc12)oc1ccccc13` below 200 nM, do you know?
(A) f

(Q) Hi there! Is IC50 for `CN(C)CCNC(=O)c1cccc2cc3[nH]c4ccccc4c3nc12` below 200 nM, do you know?
(A) f
